- Tested on: Rattus norvegicus
- PROCEDURE TEXT: Dopaminergic activity in Sprague-Dawley rat assessed as stereotyped behavior characterized by continous sniffing up to 12.5 to 50 ug administered into nucleus accumbens
- Format: functional, organism-based
The source made the active and inactive calls. No cut-off for these calls is given here.
READOUT KIND: Activity

[
  {
    "COMPOUND": "Oc1ccc2c(c1O)CC[C@@H]1NCCC[C@H]21 (relative stereo)",
    "TARGET": "Rattus norvegicus",
    "VALUE": "inactive"
  },
  {
    "COMPOUND": "NCCc1ccc(O)c(O)c1",
    "TARGET": "Rattus norvegicus",
    "VALUE": "Active"
  },
  {
    "COMPOUND": "CCCN1CCC[C@@H]2c3ccc(O)c(O)c3CC[C@@H]21 (relative stereo)",
    "TARGET": "Rattus norvegicus",
    "VALUE": "inactive"
  },
  {
    "COMPOUND": "Oc1ccc2c(c1O)CC[C@H]1NCCC[C@H]21 (relative stereo)",
    "TARGET": "Rattus norvegicus",
    "VALUE": "inactive"
  }
]

Query block: For CCN1CCC[C@@H]2c3ccc(O)c(O)c3CC[C@@H]21 (relative stereo) , what is its reported Activity?
Result block: Active

----------
- System: Rattus norvegicus
- PROCEDURE TEXT: Dopaminergic activity in Sprague-Dawley rat assessed as stereotyped behavior characterized by continous sniffing up to 25 ug administered into caudate-putamen
- Type: functional, organism-based
Calls of active or inactive are those of the source. The rule behind the calls is not given here.
Valid outcomes are listed here; reply with one: active, inactive

[
  {
    "MOLECULE": "Oc1ccc2c(c1O)CC[C@@H]1NCCC[C@H]21 (relative stereo)",
    "TARGET": "Rattus norvegicus",
    "CLASS": "inactive"
  }
]

Kindly consider the entry below.
Query block: Look up the recorded call for CCCN1CCC[C@@H]2c3ccc(O)c(O)c3CC[C@@H]21 (relative stereo) in this test.
Result block: inactive

----------
- Test system: Rattus norvegicus
- PROCEDURE TEXT: Dopaminergic activity in Sprague-Dawley rat assessed as hyperactivity up to 6.25 to 50 ug administered into nucleus accumbens
- Assay type: functional, organism-based
The source made the active and inactive calls. The calls are words filed in the database; no cut-off is given here.
Outcome field: choose from active, inactive

Query block: What outcome does the record of this test show for Oc1ccc2c(c1O)CC[C@H]1NCCC[C@H]21 (relative stereo) ?
Result block: inactive

Query block: Hello, I am checking results. What call was entered for CCCN1CCC[C@@H]2c3ccc(O)c(O)c3CC[C@H]21 (relative stereo) ?
Result block: active

Query block: Short answer needed: outcome of this test for CCCN1CCC[C@@H]2c3ccc(O)c(O)c3CC[C@@H]21 (relative stereo) ?
Result block: inactive

Query block: Called result for CCN1CCC[C@@H]2c3ccc(O)c(O)c3CC[C@@H]21 (relative stereo)
Result block: active

----------
- Tested on: Rattus norvegicus
- PROCEDURE TEXT: Dopaminergic activity in Sprague-Dawley rat assessed as stereotyped behavior characterized by continous sniffing up to 25 ug administered into caudate-putamen
- Type: functional, organism-based
The source made the active and inactive calls. The rule behind the calls is not given here.

[
  {
    "COMPOUND": "CCCN1CCC[C@@H]2c3ccc(O)c(O)c3CC[C@H]21 (relative stereo)",
    "Activity": "Active"
  },
  {
    "COMPOUND": "Oc1ccc2c(c1O)CC[C@H]1NCCC[C@H]21 (relative stereo)",
    "Activity": "Active"
  },
  {
    "COMPOUND": "CCN1CCC[C@@H]2c3ccc(O)c(O)c3CC[C@H]21 (relative stereo)",
    "Activity": "Active"
  }
]

----------
- Test system: Rattus norvegicus
- PROCEDURE TEXT: Dopaminergic activity in Sprague-Dawley rat assessed as hyperactivity up to 6.25 to 50 ug administered into nucleus accumbens
- Type: functional, organism-based
Activity calls are given as the source filed them. The rule behind the calls is not given here.
Returns: one label drawn from label 1 for active, label 0 for inactive

[
  {
    "COMPOUND": "NCCc1ccc(O)c(O)c1",
    "TARGET": "Rattus norvegicus",
    "CLASS": "label 1"
  }
]

Query block: Status in this test for CCN1CCC[C@@H]2c3ccc(O)c(O)c3CC[C@H]21 (relative stereo) ?
Result block: label 0

Query block: Lab log entry: Oc1ccc2c(c1O)CC[C@@H]1NCCC[C@H]21 (relative stereo) — outcome as called in the assay?
Result block: label 0

These measurements were taken from ChEMBL document CHEMBL3228001.
